molecular target: Left-right determination factor 2 (Homo sapiens); assay: small molecules binding LEFTY2 protein – biochemical, small-molecule microarray, 635 nm fluorescence scan, primary screen (AID 1110); conditions: higher = more signal
propertyMeasured: composite z-score

Value lookup for composite z-score; key = "O=C1N(CCS(=O)(=O)c2ccccc2)c2ccccc2C[C@]12N=C(c1ccc(OCCCO)cc1)O[C@@H]2c1ccccc1"
0.845

###

Readings of z-score for the listed molecules
test: growth of efflux-deficient E. coli DRC39 – strain DRC39, OD650, 24 h, E. coli filamentation inducers, primary screen (AID 1178);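 note: growth measured as culture turbidity by optical density at 650 nm; test concentration not given here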; details: E. coli DRC39 acrAB, higher = more signal, called active from +8 up or from −8 down
// return a plain number; no unit text

Example cases with answers are listed next.
| inputSmiles | propertyMeasured | endpointResult |
| --- | --- | --- |
| COCCn1c(C(=O)N(C)C)cc2c1C[C@H]1CN(C(=O)c3ccccc3)[C@@](Cc3ccc(OC)cc3)(C(=O)OC)[C@@H]21 | z-score | -0.134 |
| CC(C)NC(=O)[C@@]1(c2ccc([N+](=O)[O-])cc2)CC(=O)N(CC23CC4CC(CC(C4)C2)C3)[C@@H]1c1ccc(CO)cc1 | z-score | -0.502 |
| CCCC=C(CCC)[C@@H](NC(=O)c1ccc(C(F)(F)F)cc1)c1ccc(C(F)(F)F)cc1 | z-score | -0.101 |

// moving on: another record for z-score
Recorded z-score for "COCCCNC(=O)[C@@]1(CCC(=O)OC(C)(C)C)COC(c2ccc(OCCCO)cc2)=N1" , please?
0.391

###

test system: Neuregulin-1 EGF-like domain; assay: small molecules binding NRG1 EGF domain – biochemical, small-molecule microarray, 635 nm fluorescence, primary screen (AID 1081); conditions: higher = more signal;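 note: binding of the protein to compounds printed on small-molecule microarray slides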
Where composite z-score equals or exceeds 1, the correct label is 1; where it does not, the label is 0.

Below, 10 compounds whose answers are already recorded.
| compound | label |
| --- | --- |
| C=CCOC(=O)[C@@H]1[C@H]2C(=O)O[C@H](c3ccccc3)[C@H](c3ccccc3)N2[C@H](c2ccc(OCCOC(=O)[C@H]3C[C@H]4C(=O)NCC(=O)N4[C@H]3c3cccc(OCCO)c3)cc2)[C@@]12C(=O)Nc1ccc(I)cc12 | 1 |
| CN1C(=O)C2C(C1=O)C1C=C(c3ccc(CO)cc3)C2C(C2CC2)N1C (stereo not given) | 0 |
| Cc1ccc(F)cc1S(=O)(=O)N[C@H]1CCN(Cc2ccc(OC(C)C)cc2)C1 | 0 |
| CC(C)C(=C=CC[C@H](O)c1ccccc1OCCO)C[C@H](O)COCc1ccccc1 | 0 |
| CCCCC(=C=CC[C@H](O)c1ccc(CO)o1)CCO | 1 |
| C=C(CCCC)/C(=C/C[C@@H](OC(C)=O)c1ccc(CO)o1)c1cnc2ccccc2c1 | 1 |
| Cc1ccc(S[C@]2(C(=O)NCc3ccccc3)CC(=O)N(Cc3ccccc3C(F)(F)F)[C@@H]2c2ccc(CO)cc2)cc1 | 0 |
| [N-]=[N+]=Nc1ccccc1[C@@H]1OC(c2ccc(OCCCO)cc2)=N[C@]1(Cc1ccccc1)C(=O)NCCN1CCOCC1 | 1 |
| C=CCNC(=O)[C@H]1[C@@H]2C(=O)O[C@@H](c3ccccc3)[C@@H](c3ccccc3)N2[C@@H](c2ccc(OCCO)cc2)[C@]12C(=O)Nc1ccccc12 | 1 |
| CC(C)(C)N1CC=CC23O[C@@H]4/C=C\CCCOC(=O)C4[C@H]2C(=O)N(CCCCCO)[C@@H]3C1=O (stereo not given in full) | 0 |

Decide: composite z-score of C=CC1c2cc(O)c(OC)cc2CCN1C (stereo not given) >= 1?
1

Try this compound next: "CN(C)CCCC[C@@H]1NC(=O)[C@H]2C[C@@H](C(=O)O)[C@@H](c3ccc(O)cc3)N2C1=O"
1

Would you kindly repeat that for Cc1ccccc1C(O)C1C=CC2C(=O)N(c3ccccc3)C(=O)C2N1Nc1ccccc1 (stereo not given) ?
1

###

biological target: NADPH oxidase 4 (Homo sapiens); assay: compounds shifting NOX4 Amplex Red fluorescence – cell-based, HEK293-NOX4, tetracycline-induced, NOX inhibitor project, primary screen (AID 1160); details: HEK293-NOX4, Amplex Red H2O2 fluorescence, 45 min; higher = more signal, called active from +8 up or from −8 down
Short version: z-score at least -2 is Criterion met, less is Criterion not met.

Recorded results for 7 compounds are shown here.
| compound | measuredTarget | label |
| --- | --- | --- |
| C[C@]1(C(=O)O)c2ccccc2C(=O)N(Cc2cc(F)cc(C(F)(F)F)c2)[C@H]1c1ccc(CO)cc1 | NADPH oxidase 4 (Homo sapiens) | Criterion met |
| C=CC[C@@]1(C(=O)OC)N=C(c2ccc(OCCCO)cc2)O[C@@H]1c1ccccc1N=[N+]=[N-] | NADPH oxidase 4 (Homo sapiens) | Criterion met |
| COc1cc(C(O)C2C=CC3C(=O)N(c4ccccc4)C(=O)C3N2Nc2ccccc2)cc(OC)c1OC (stereo not drawn) | NADPH oxidase 4 (Homo sapiens) | Criterion not met |
| COC(=O)[C@]1(CCC(=O)OC(C)(C)C)N=C(c2ccc(OCCCO)cc2)O[C@@H]1c1ccccc1N=[N+]=[N-] | NADPH oxidase 4 (Homo sapiens) | Criterion met |
| CCOC(=O)C1=CC[C@@H](c2ccc(OC)cc2)N(S(=O)(=O)c2ccc(C)cc2)[C@H]1CC | NADPH oxidase 4 (Homo sapiens) | Criterion met |
| CC(C)C[C@H]1NC(=O)C([C@@H](C)OCc2ccccc2)NC(=O)[C@@]23C(=O)N[C@@H](Cc4ccccc4)C2[C@H](C)[C@@]2(C)O[C@H]2C3/C=C/C/C=C\CNC1=O (stereo partly drawn) | NADPH oxidase 4 (Homo sapiens) | Criterion met |
| CC(C)=CCCC=C(C)C(O)C1C=CC2C(=O)N(c3ccccc3)C(=O)C2N1Nc1ccc(C#N)cc1 (stereo not drawn) | NADPH oxidase 4 (Homo sapiens) | Criterion met |

--- query ---
hey, is z-score for this one >= -2? O=C1C2C=CC(C(O)c3c(F)cccc3Cl)N(Nc3ccc([N+](=O)[O-])cc3)C2C(=O)N1c1ccccc1 (stereo not drawn)
Criterion not met

###

molecular target: Torsin-1A-interacting protein 1 (Homo sapiens) (UniProt Q5JTV8); assay: compound microarray binding of lysate hLAP1 – cell lysate, small-molecule microarray, COS7 lysate, 635/667 nm fluorescence, primary screen (AID 1116); settings: 635 nm fluorescence, higher = more signal
Sequence (Q5JTV8 whole entry, looked up): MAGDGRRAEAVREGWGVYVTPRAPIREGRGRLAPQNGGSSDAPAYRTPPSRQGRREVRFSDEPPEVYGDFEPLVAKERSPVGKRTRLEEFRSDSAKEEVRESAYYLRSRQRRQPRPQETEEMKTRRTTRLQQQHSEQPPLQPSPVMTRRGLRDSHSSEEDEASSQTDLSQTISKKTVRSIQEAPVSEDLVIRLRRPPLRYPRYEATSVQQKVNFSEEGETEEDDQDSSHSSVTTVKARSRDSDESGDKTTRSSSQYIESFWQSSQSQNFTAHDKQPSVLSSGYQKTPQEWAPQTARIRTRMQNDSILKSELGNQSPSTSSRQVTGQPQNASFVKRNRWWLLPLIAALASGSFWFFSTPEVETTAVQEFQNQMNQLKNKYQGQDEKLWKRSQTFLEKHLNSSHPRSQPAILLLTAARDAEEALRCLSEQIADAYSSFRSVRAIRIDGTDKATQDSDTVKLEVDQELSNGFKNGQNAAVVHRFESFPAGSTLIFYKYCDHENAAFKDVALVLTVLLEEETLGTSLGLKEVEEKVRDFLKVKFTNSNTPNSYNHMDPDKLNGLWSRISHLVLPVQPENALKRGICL
If the reported composite z-score equals or exceeds 2, assign Yes. If not, assign No.

These recorded examples may help you get a feel for the data.
| molecule | label |
| --- | --- |
| O=C1C2C=CC(C(O)c3c(F)cccc3Cl)N(Nc3ccc([N+](=O)[O-])cc3)C2C(=O)N1c1ccccc1 (configuration not stated) | No |
| CC(C)(C)OC(=O)CC[C@]1(C(=O)NCC(O)CO)N=C(c2ccc(OCCCO)cc2)O[C@H]1c1ccccc1N=[N+]=[N-] (some centres not stated) | Yes |
| COC(=O)[C@@]1(Cc2ccccc2)[C@H]2c3cc(C(=O)N(C)C)n(Cc4ccc(S(C)(=O)=O)cc4)c3C[C@H]2CN1C(=O)c1ccccc1 | No |
| C=C(COC)/C(=C/C[C@@H](OC(C)=O)c1ccccc1OCCO)c1cnc2ccccc2c1 | No |
| COc1cc(C(O)C2C=CC3C(=O)N(c4ccccc4)C(=O)C3N2Nc2ccccc2)cc(OC)c1OC (configuration not stated) | No |

Reported composite z-score at or above 2? [N-]=[N+]=Nc1ccccc1[C@@H]1OC(c2ccc(OCCCO)cc2)=N[C@]1(CCS(=O)(=O)c1ccccc1)C(=O)NCC(O)CO (some centres not stated)
Yes

And the next one, "NC(=O)NCC#Cc1ccc2c(c1)[C@]1(C(=O)N2)[C@H](c2ccc(OCCO)cc2)N2[C@H](c3ccccc3)[C@H](c3ccccc3)OC(=O)[C@H]2[C@@H]1C(=O)NC[C@H](O)c1ccccc1" ?
No

###

Here, each record is paired with measured z-score data.
assay: growth of efflux-deficient E. coli DRC39 – strain DRC39, OD650, 48 h, E. coli filamentation inducers, primary screen (AID 1179);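 note: screen aims at cell division blockers that make cells filament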; settings: E. coli DRC39 delta-acrAB growth, higher = more signal, called active from +8 up or from −8 down
Kindly provide the number alone.

// worked examples, z-score included
| inputSmiles | z-score |
| --- | --- |
| COC(=O)[C@@]1(Cc2ccccc2)[C@H]2c3cc(C(=O)N4CCCC4)n(Cc4ccc(OC)c(OC)c4)c3C[C@H]2CN1C(=O)c1ccccc1 | 0.352 |
| COc1ccc([Si](C)(C)[C@@H]2[C@@H](CC(=O)N3Cc4ccccc4C[C@H]3CO)O[C@]3(C(=O)N(Cc4cccc(N5CCOC5=O)c4)c4ccccc43)[C@H]2C)cc1 | -0.655 |

--- query ---
# lookup: z-score of "O=C1O[C@H](c2ccccc2)[C@H](c2ccccc2)N2[C@H]1[C@@H](C(=O)O)[C@]1(C(=O)Nc3ccc(C#CCCO)cc31)[C@H]2c1ccc(OCCO)cc1"
0.471
